study_system: PI 3-kinase beta (Homo sapiens)
Sequence (P42338 whole entry): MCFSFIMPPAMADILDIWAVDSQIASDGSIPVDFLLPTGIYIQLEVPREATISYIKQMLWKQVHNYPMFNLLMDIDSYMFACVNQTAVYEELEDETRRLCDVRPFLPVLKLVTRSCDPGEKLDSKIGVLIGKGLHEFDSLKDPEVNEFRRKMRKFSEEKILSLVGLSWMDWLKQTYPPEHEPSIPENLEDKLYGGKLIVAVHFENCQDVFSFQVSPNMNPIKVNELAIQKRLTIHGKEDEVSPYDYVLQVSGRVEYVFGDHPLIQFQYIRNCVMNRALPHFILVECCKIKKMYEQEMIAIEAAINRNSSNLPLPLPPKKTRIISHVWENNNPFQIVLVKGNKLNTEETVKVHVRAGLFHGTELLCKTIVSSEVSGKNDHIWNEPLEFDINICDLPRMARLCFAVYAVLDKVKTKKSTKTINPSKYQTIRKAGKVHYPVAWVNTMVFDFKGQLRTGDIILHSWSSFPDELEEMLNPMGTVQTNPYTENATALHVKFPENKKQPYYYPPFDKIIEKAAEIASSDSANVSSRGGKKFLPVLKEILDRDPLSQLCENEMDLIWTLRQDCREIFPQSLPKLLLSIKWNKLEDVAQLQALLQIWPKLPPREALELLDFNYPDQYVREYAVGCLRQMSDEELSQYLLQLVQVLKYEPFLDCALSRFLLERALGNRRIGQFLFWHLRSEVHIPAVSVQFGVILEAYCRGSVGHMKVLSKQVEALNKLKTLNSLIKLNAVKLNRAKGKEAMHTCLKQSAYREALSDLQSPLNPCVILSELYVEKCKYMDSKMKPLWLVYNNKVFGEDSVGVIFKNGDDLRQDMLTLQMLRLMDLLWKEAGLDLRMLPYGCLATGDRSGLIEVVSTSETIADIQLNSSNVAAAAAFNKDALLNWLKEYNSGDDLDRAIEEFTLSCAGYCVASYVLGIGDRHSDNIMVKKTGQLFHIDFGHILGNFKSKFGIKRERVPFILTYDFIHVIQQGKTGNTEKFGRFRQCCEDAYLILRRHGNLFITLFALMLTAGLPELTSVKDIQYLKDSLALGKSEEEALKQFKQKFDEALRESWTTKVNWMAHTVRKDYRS
Sequence (P27986 461-568 partner): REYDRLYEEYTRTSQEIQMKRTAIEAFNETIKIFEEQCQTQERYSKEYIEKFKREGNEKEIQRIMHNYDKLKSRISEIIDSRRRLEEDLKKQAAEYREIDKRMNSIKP
assay_summary: Kinase Glo Luminescent Kinase Assay (Kglo), assay B
Assay type: biochemical
condition: read-out: Assay B PI3Kβ IC50
pIC50: −log10 of the molar value.
observable: pIC50

Use these answered entries as a reference point.
{"compound": "Cc1ccc(S(=O)(=O)N[C@H]2CC[C@H](O)CC2)cc1-c1cnc(N)c(-c2cncnc2)n1", "pIC50": 5.28}
{"compound": "CCn1ncc(-c2nc(-c3cc(S(=O)(=O)NCC(C)(C)O)ccc3C)cnc2N)n1", "pIC50": 5.26}
{"compound": "Cc1ccc(S(=O)(=O)NCCC(C)(C)O)cc1-c1cnc(N)c(-c2cc(C3CC3)no2)n1", "pIC50": 5.66}
{"compound": "Cc1csc(-c2nc(-c3cc(S(=O)(=O)NCCC(C)(C)O)ccc3C)cnc2N)c1", "pIC50": 5.75}
{"compound": "Cc1ccc(S(=O)(=O)NCCC(C)(C)O)cc1-c1cnc(N)c(-c2cnc(C3CC3)s2)n1", "pIC50": 5.68}
{"compound": "Cc1ccc(S(=O)(=O)N2CCC(F)C2)cc1-c1cnc(N)c(-n2cncn2)n1 (centres unmarked)", "pIC50": 6.00}
{"compound": "Cc1ccc(S(=O)(=O)NCCC(C)(C)O)cc1-c1cnc(N)c(-c2cnn(Cc3ccncc3)c2)n1", "pIC50": 5.55}
{"compound": "Cc1ccc(S(=O)(=O)NC2CC3(CC(O)C3)C2)cc1-c1cnc(N)c(-n2cncn2)n1 (single isomer, unassigned) [Example 70a]", "pIC50": 6.12}

A. Cc1ccc(S(=O)(=O)NCC(C)(C)O)cc1-c1cnc(N)c(-c2cnn(C)n2)n1
B. Cc1ccc(S(=O)(=O)N[C@H]2CC[C@H](O)CC2)cc1-c1cnc(N)c(-c2cccnc2)n1
Determine, for A and B , which has the greater value of pIC50. Lab log: write the label of the selected item as the result. A
(A: 5.55, B: 5.24)
